Source of measurements: ChEMBL document CHEMBL1156597

System: LoVo
Assay: Cytotoxicity against human doxorubicin resistant LoVo cells after 48 hrs by SRB assay
Type: functional
value_kind: GI50 (µM)
All answers are understood in µM, so give the number only.

Task: Item under review: `C/C=C1\NC(=O)[C@H](Cc2ccccc2)NC(=O)[C@@H](C(C)C)NC(=O)[C@@H]([C@H](C)CC)NC(=O)[C@H](NC(=O)[C@H](NC(=O)[C@H](CCCN)NC(=O)[C@H]2CCCN2C(=O)[C@H](NC(=O)[C@@H](NC(=O)[C@@H](NC(=O)[C@H](NC(=O)CCCCCC)C(C)C)[C@@H](C)O)C(C)C)C(C)C)[C@H](C)CC)[C@H](C)OC(=O)[C@H](C(C)C)NC1=O` . Reported GI50?
Result: 0.264

Task: Item under review: `C/C=C1\NC(=O)[C@H](Cc2ccccc2)NC(=O)[C@@H](C(C)C)NC(=O)[C@@H]([C@H](C)CC)NC(=O)[C@H](NC(=O)[C@H](NC(=O)[C@H](CCCN)NC(=O)[C@H]2CCCN2C(=O)[C@H](NC(=O)[C@@H](NC(=O)[C@H](C)NC(=O)[C@H](NC(=O)CCCC(C)C)C(C)C)C(C)C)C(C)C)[C@H](C)CC)[C@H](C)OC(=O)[C@H](C(C)C)NC1=O` . Reported GI50?
Result: 1.08

Task: Item under review: `C/C=C1\NC(=O)[C@H](Cc2ccc(OC)cc2)NC(=O)[C@@H](C(C)C)NC(=O)[C@@H]([C@H](C)CC)NC(=O)[C@H](NC(=O)[C@H](NC(=O)[C@H](CCCN)NC(=O)[C@H]2CCCN2C(=O)[C@H](NC(=O)[C@@H](NC(=O)[C@@H](NC(=O)[C@H](NC(=O)CC[C@@H](C)CC)C(C)C)[C@@H](C)O)C(C)C)C(C)C)[C@H](C)CC)[C@H](C)OC(=O)[C@H](C(C)C)NC1=O` . Reported GI50?
Result: 0.237

Task: Item under review: `C/C=C1\NC(=O)[C@H](Cc2ccccc2)NC(=O)[C@@H](C(C)C)NC(=O)[C@@H]([C@H](C)CC)NC(=O)[C@H](NC(=O)[C@H](NC(=O)[C@H](CCCN)NC(=O)[C@H]2CCCN2C(=O)[C@H](NC(=O)[C@@H](NC(=O)[C@@H](NC(=O)[C@H](NC(=O)CCCCC(C)=O)C(C)C)[C@@H](C)O)C(C)C)C(C)C)[C@H](C)CC)[C@H](C)OC(=O)[C@H](C(C)C)NC1=O` . Reported GI50?
Result: 5.05

Task: Item under review: `C/C=C1\NC(=O)[C@H](Cc2ccccc2)NC(=O)[C@@H](C(C)C)NC(=O)[C@@H]([C@H](C)CC)NC(=O)[C@H](NC(=O)[C@H](NC(=O)[C@H](CCCN)NC(=O)[C@H]2CCCN2C(=O)[C@H](NC(=O)[C@@H](NC(=O)[C@H](CCCN)NC(=O)[C@H](NC(=O)CCCC(C)C)C(C)C)C(C)C)C(C)C)[C@H](C)CC)[C@H](C)OC(=O)[C@H](C(C)C)NC1=O` . Reported GI50?
Result: 2.88

---

For each of the molecules below, state its GI50.
Test system: DU-145
Assay: Cytotoxicity against human DU145 cells after 48 hrs by SRB assay
Assay type: functional, cell-based
Conditions: Homo sapiens, DU-145, 48 h; read-out: GI50
Your answer should be a number followed by the unit of measure.

Task: Look up GI50 with DU-145 for this molecule: `C/C=C1\NC(=O)[C@H](Cc2ccccc2)NC(=O)[C@@H](C(C)C)NC(=O)[C@@H]([C@H](C)CC)NC(=O)[C@H](NC(=O)[C@H](NC(=O)[C@H](CCCNC(=O)/C=C/CCC)NC(=O)[C@H]2CCCN2C(=O)[C@H](NC(=O)[C@@H](NC(=O)[C@@H](NC(=O)[C@H](NC(=O)CCCC(C)C)C(C)C)[C@@H](C)O)C(C)C)C(C)C)[C@H](C)CC)[C@H](C)OC(=O)[C@H](C(C)C)NC1=O`
Result: 661 nM

Task: Look up GI50 with DU-145 for this molecule: `C/C=C1\NC(=O)[C@H](Cc2ccccc2)NC(=O)[C@@H](C(C)C)NC(=O)[C@@H]([C@H](C)CC)NC(=O)[C@H](NC(=O)[C@H](NC(=O)[C@H](CCCN)NC(=O)[C@H]2CCCN2C(=O)[C@H](NC(=O)[C@H](Cc2ccccc2)NC(=O)[C@@H](NC(=O)[C@H](NC(=O)CCCC(C)C)C(C)C)[C@@H](C)O)C(C)C)[C@H](C)CC)[C@H](C)OC(=O)[C@H](C(C)C)NC1=O`
Result: 612 nM
